# system.under.test: Ephrin type-B receptor 4 (Homo sapiens, UniProt P54760); also: in the data inactive means no Kd found up to 30 µM
# Sequence (P54760 whole entry): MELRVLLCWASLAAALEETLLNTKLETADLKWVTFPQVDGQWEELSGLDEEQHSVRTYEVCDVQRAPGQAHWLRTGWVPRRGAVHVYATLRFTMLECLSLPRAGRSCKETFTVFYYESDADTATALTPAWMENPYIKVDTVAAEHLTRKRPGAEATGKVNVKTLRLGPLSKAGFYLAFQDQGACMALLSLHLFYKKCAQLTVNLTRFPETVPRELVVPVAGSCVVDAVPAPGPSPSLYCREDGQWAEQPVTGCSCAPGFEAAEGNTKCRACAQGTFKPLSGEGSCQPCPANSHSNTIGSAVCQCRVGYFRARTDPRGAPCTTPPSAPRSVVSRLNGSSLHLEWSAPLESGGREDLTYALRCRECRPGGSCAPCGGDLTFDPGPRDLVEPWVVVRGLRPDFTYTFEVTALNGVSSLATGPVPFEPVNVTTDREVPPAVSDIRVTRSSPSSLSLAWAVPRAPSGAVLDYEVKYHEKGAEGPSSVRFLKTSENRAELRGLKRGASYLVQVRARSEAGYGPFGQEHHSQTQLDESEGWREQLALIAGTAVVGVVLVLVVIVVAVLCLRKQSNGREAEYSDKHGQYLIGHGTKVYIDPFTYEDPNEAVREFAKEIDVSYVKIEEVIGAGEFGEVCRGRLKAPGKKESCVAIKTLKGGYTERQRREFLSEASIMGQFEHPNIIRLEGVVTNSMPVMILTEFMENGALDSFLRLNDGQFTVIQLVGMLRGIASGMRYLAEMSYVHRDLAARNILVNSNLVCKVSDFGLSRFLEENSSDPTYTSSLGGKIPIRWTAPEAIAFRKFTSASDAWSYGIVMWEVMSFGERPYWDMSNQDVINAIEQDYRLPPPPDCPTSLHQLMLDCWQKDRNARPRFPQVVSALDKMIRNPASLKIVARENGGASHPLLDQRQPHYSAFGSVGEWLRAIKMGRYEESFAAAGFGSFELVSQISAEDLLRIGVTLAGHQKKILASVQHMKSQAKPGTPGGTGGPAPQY
Calls of active or inactive are those of the source.
# valid calls are Yes for active, No for inactive; nothing else

Answered examples (7):
> print(dat)
                        structure.as.smiles  label
1  CCS(=O)(=O)c1cccc(-c2cc(C(=O)NC3CCN(C)CC3)c(C)c3[nH]c4ncc(C)cc4c23)c1    Yes
2  C[C@@H](Oc1cc(C(=O)Nc2ccc(C(=O)N3CCN(C)CC3)cc2)nnc1N)c1c(Cl)ccc(F)c1Cl     No
3  COc1c(OCCCN2CCOCC2)ccc2c1N=C(NC(=O)c1cnc(N)nc1)N1CCN=C21     No
4  CC(=O)c1cnc2ccc(-c3cc(Cl)c(O)c(Cl)c3)nc2c1N[C@H]1CC[C@H](CN(C)C)CC1    Yes
5  CCOc1cc2ncc(C#N)c(Nc3ccc(F)c(Cl)c3)c2cc1NC(=O)/C=C/CN(C)C     No
6  CNC(=O)c1nn(C)c2c1C(C)(C)Cc1cnc(Nc3ccc(N4CCN(C)CC4)cc3)nc1-2    Yes
7  CN1C/C=C/CCOc2cccc(c2)-c2ccnc(n2)Nc2cccc(c2)C1     No

Q: Which outcome did this test record for the molecule `C[C@@H](NC(=O)c1ncnc(N)c1Cl)c1ncc(C(=O)Nc2cc(C(F)(F)F)c(Cl)cn2)s1` ?
Result: Yes

Data provenance: ChEMBL document CHEMBL3991601
